Tested on: SK-BR-3
condition parameters: 72 h
endpoint label: EC50, CellTiter-Glo (µM)
Answer with a number only, understood to be in µM.

C[C@]12O[C@H](C[C@]1(O)CO)n1c3ccccc3c3c4c(c5c6ccccc6n2c5c31)CNC4=O [Lestaurtinib] = 0.215
COc1ccc(-c2cc3c(C)nc(N)nc3n([C@H]3CC[C@H](OCCO)CC3)c2=O)cn1 = 0.0238
Nc1ccccc1NC(=O)c1ccc(CNc2nccc(-c3cccnc3)n2)cc1 [Mocetinostat] = 1.66

Now look at this one.
Entry CCC/C=C/C=C/C(=O)O[C@H]1/C(=C/C(=O)OC)C[C@H]2C[C@H]([C@@H](C)O)OC(=O)C[C@H](O)C[C@@H]3C[C@H](OC(C)=O)C(C)(C)[C@](O)(C[C@@H]4C/C(=C/C(=O)OC)C[C@H](/C=C/C(C)(C)[C@]1(O)O2)O4)O3 [Bryostatin 1] — recorded EC50, CellTiter-Glo = 0.0001
